# study system: renin (Homo sapiens, UniProt P00797)
# Construct: endogenous renin and angiotensinogen in plasma
# Sequence (P00797 67-406): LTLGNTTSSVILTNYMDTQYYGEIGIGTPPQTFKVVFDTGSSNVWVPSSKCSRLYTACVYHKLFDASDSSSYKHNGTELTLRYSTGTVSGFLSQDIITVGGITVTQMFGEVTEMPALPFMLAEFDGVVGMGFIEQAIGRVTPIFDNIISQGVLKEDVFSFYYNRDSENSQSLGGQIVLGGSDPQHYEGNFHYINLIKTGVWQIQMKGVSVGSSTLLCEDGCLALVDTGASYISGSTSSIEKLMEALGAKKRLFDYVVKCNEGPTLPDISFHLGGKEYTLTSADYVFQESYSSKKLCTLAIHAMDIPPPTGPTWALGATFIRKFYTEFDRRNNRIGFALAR
# measurement notes: Inhibition of human plasma renin activity (angiotensin I formation, RIA)
# condition context: endogenous renin and angiotensinogen, pH 6.0, 37° C, 90 minutes, RIA of Ang I
For each record, write down the corresponding pIC50.
# pIC50 = -log10(concentration in molar units)

Data point: CC(=O)COC(=O)CN(C)C(=O)O[C@@H](Cc1ccccc1)C(=O)N(C)[C@@H](Cc1c[nH]cn1)C(=O)N[C@@H](CC1CCCCC1)[C@@H](O)CCC(C)C ; pIC50 = 7.48

Data point: CC(C)CC[C@H](O)[C@H](CC1CCCCC1)NC(=O)[C@H](Cc1c[nH]cn1)N(C)C(=O)[C@H](Cc1ccccc1)OC(=O)N(C)CC(=O)OCCc1ccccc1 ; pIC50 = 7.32

Data point: CC(C)CC[C@H](O)[C@H](CC1CCCCC1)NC(=O)[C@H](Cc1c[nH]cn1)N(C)C(=O)[C@H](Cc1ccccc1)OC(=O)N(C)CCC(=O)N1CCSCC1 ; pIC50 = 7.52

Data point: CC(C)CC[C@H](O)[C@H](CC1CCCCC1)NC(=O)[C@H](Cc1c[nH]cn1)N(C)C(=O)[C@H](Cc1ccccc1)OC(=O)N(C)CCC(=O)N1CCOCC1 ; pIC50 = 7.60

Data point: CC(C)CC[C@H](O)[C@H](CC1CCCCC1)NC(=O)[C@H](Cc1c[nH]cn1)N(C)C(=O)[C@H](Cc1ccccc1)OC(=O)N(C)CCC(=O)NCc1ccccn1 ; pIC50 = 7.48

Data point: CC(C)CC[C@H](O)[C@H](CC1CCCCC1)NC(=O)[C@H](Cc1c[nH]cn1)NC(=O)[C@H](Cc1ccccc1)OC(=O)N1CCOCC1 ; pIC50 = 7.72

====

# study system: renin (Homo sapiens, UniProt P00797)
# Construct: endogenous renin and angiotensinogen in plasma
# measurement notes: Inhibition of human plasma renin activity (angiotensin I formation, RIA)
# condition context: endogenous renin and angiotensinogen, pH 6.0, 37° C, 90 minutes, RIA of Ang I
# Experimental: Human plasma was collected from male volunteers pretreated with no drugs and used as a pool. Disodium salt of ethylenediaminetetraacetic acid (EDTA) was used as the anticoagulant. Plasma renin activity was measured as the rate of angiotensin I (Ang I) formation after incubation (37° C) of the endogenous renin and angiotensinogen in plasma at pH 6.0. […] Samples were incubated in duplicate and each tube was measured in duplicate in the RIA. […]
value kind: pIC50
# pIC50 = -log10(concentration in molar units)

Data point: CC(C)CC[C@H](O)[C@H](CC1CCCCC1)NC(=O)[C@H](Cc1c[nH]cn1)N(C)C(=O)[C@H](Cc1ccccc1)OC(=O)N(C)CCC(=O)N1CC=CCC1 ; pIC50 = 7.36

Data point: CC(C)CC[C@H](O)[C@H](CC1CCCCC1)NC(=O)[C@H](Cc1c[nH]cn1)N(C)C(=O)[C@H](Cc1ccccc1)OC(=O)N(C)CCCC(=O)N(C)C(C)C ; pIC50 = 7.77

Data point: CC(C)CC[C@H](O)[C@H](CC1CCCCC1)NC(=O)[C@H](Cc1c[nH]cn1)NC(=O)[C@H](Cc1ccccc1)OC(=O)N(C)N(C)C(=O)N1CCOCC1 ; pIC50 = 8.01

Data point: CC(C)CC[C@H](O)[C@H](CC1CCCCC1)NC(=O)[C@H](Cc1c[nH]cn1)N(C)C(=O)[C@H](Cc1ccccc1)OC(=O)N(C)CCCCC(=O)NC(C)C ; pIC50 = 8.19

Data point: CC(C)CC[C@H](O)[C@H](CC1CCCCC1)NC(=O)[C@H](Cc1c[nH]cn1)N(C)C(=O)[C@H](Cc1ccccc1)OC(=O)N(C)CCN(C)C(=O)N1CCOCC1 ; pIC50 = 8.40

Data point: CC(C)CC[C@H](O)[C@H](CC1CCCCC1)NC(=O)[C@H](Cc1c[nH]cn1)N(C)C(=O)[C@H](Cc1ccccc1)OC(=O)N(C)CCC(=O)NC(C)C ; pIC50 = 7.43

Data point: CC(C)CC[C@H](O)[C@H](CC1CCCCC1)NC(=O)[C@H](Cc1c[nH]cn1)N(C)C(=O)[C@H](Cc1ccccc1)OC(=O)N(C)N(C)C(=O)OCC(C)C ; pIC50 = 7.15

Data point: CC(C)CC[C@H](O)[C@H](CC1CCCCC1)NC(=O)[C@H](Cc1c[nH]cn1)N(C)C(=O)[C@H](Cc1ccccc1)OC(=O)N(C)CCS(=O)(=O)C(C)C ; pIC50 = 7.24

Data point: CC(C)CC[C@H](O)[C@H](CC1CCCCC1)NC(=O)[C@H](Cc1c[nH]cn1)N(C)C(=O)[C@H](Cc1ccccc1)OC(=O)N(C)N(C)C(=O)NC(C)C ; pIC50 = 7.37

Data point: CC(C)CC[C@H](O)[C@H](CC1CCCCC1)NC(=O)[C@H](Cc1c[nH]cn1)N(C)C(=O)[C@H](Cc1ccccc1)OC(=O)N1CC(=O)N2CCC[C@H]2C1 ; pIC50 = 7.68

Data point: CC(C)CC[C@H](O)[C@H](CC1CCCCC1)NC(=O)[C@H](Cc1c[nH]cn1)N(C)C(=O)[C@H](Cc1ccccc1)OC(=O)N(C)CCCCN(C)C(=O)N1CCOCC1 ; pIC50 = 8.12
